Measured aptazyme ON/OFF ratio, listed per entry for reference.
B1: Pistol ribozyme (parent)
chain: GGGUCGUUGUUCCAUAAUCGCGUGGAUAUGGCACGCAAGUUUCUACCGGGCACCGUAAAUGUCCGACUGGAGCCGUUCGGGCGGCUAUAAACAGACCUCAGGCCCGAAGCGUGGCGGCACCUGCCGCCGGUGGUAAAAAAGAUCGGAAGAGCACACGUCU

Variants of: B1
Assay info: aptazyme ON/OFF ratio, guanine; higher = stronger switching; co-transcriptional cleavage with and without guanine
Write the number on its own, no unit after it.

Variant descriptor: U7A U8G U11A C13U
aptazyme ON/OFF ratio: 1.11

// query Please look up its aptazyme ON/OFF ratio: U8G U10A U11G C12G C13A
// result 1.31

// query Give the measured aptazyme ON/OFF ratio of U7G U8A G9C U10A U11G C12G .
// result 1.03

// query GET /values?readout=aptazyme ON/OFF ratio&item= U8G G9A U10G U11A C12G C13U
// result 1.24

// query I am curious: what aptazyme ON/OFF ratio value has been reported for U8G G9C U10A U11C C12U C13U ?
// result 1.02

// query Which aptazyme ON/OFF ratio is reported for this variant? U7G U8A G9U U10C U11G C12A C13G
// result 1.05
